Readout type: melting point (°C)

Would you please look over these solved cases?
Please fill in: melting point reported for `FC(F)(Cl)C(F)(Cl)C(F)(F)Cl` = -72

Please fill in: melting point reported for `O=C(c1ccc(O)cc1)c1ccc(Cl)cc1` = 180

Please fill in: melting point reported for `CC(=O)OCC(COC(C)=O)(COC(C)=O)COC(C)=O` = 83.5

Please fill in: melting point reported for `COC(=O)c1ccccn1` = 18.7

Please fill in: melting point reported for CCCCCCCC1CCCC(=O)O1 (configuration not stated) = -12

Please fill in: melting point reported for `Cc1ccc2nc3sc(=O)sc3nc2c1` = 170

Please fill in: melting point reported for `CN(C)S(=O)N(C)C` = 31

Please fill in: melting point reported for CCCCC(CC)COP(=O)(O)OCC(CC)CCCC (configuration not stated) = -50

(a) NC(=O)c1c(F)ccc(F)c1F
(b) Cc1ccc(NN=C2C(=O)NN(c3ccccc3)C2=O)cc1
(c) CC(C)C(CO)CCC(C)(O)C(O)C(C)C (configuration not stated)
(d) CCOCCOCCOC(C)=O
(e) CC/C=C/C(=O)O
Returns the items ordered by melting point, from maximum to minimum. A ranking is expressed here by listing the labels in the requested order.
b, a, c, e, d
(b: 277 °C, a: 117 °C, c: 60 °C, e: 9 °C, d: -25 °C)

(1) CCC(C(=O)Nc1cccc2ccccc12)C1CCC(OC)CC1 (configuration not stated)
(2) N#Cc1ccc(C(Cl)C(Cl)c2cccc(C(Cl)C(Cl)c3ccc(C#N)cc3[N+](=O)[O-])c2)c([N+](=O)[O-])c1 (configuration not stated)
Lab note: record which item had the higher melting point, 1 or 2 . Answer with the label corresponding to your selection.
2
(2: 248 °C, 1: 163 °C)

(A) O=C(Nc1nccs1)C(F)(F)C(F)(F)C(F)(F)C(F)(F)C(F)(F)C(F)(F)C(F)(F)C(F)(F)F
(B) O=[N+]([O-])c1ccc(S(=O)(=O)Cl)cc1C(F)(F)F
Problem: Given the entries A and B , determine which has the lower reported melting point. Answer with the label corresponding to your selection.
B
(B: 64 °C, A: 146 °C)

* * *

Readout type: melting point

Would you please look over these solved cases?
Please fill in: melting point reported for `O=C(Cl)c1cccnc1Sc1ccccc1` = 71 to 74 °C

Please fill in: melting point reported for `O=S(=O)(NO)c1ccccc1` = 120 to 125 °C

Please fill in: melting point reported for `O=[N+]([O-])c1cc(C(F)(F)F)ccc1N1CCOCC1` = 34 to 36 °C

Next up:
Please fill in: melting point reported for `Oc1ccc(O)c(C=NCCN=Cc2cc(O)ccc2O)c1` = 125 to 127 °C

* * *

The compounds listed here are annotated with their melting point.

Would you please look over these solved cases?
Please fill in: melting point reported for NC(=O)C1CC1(Cl)Cl (stereo unspecified) = 148 to 149 °C

Please fill in: melting point reported for `CO[C@@H](C)C(N)=O` = 80 to 84 °C

Please fill in: melting point reported for `CC1(C)CCC(O)CC1` = 28 to 30 °C

Please fill in: melting point reported for `C[C@@H](OC(C)(C)C)[C@H](NC(=O)OCC1c2ccccc2-c2ccccc21)C(=O)O` = 131 to 134 °C

Please fill in: melting point reported for `Oc1cc2c(cc1O)Cc1cc(O)c(O)cc1Cc1cc(O)c(O)cc1C2` = 287 to 289 °C

Please fill in: melting point reported for `O=C(O)c1ccc2ncccc2c1` = 293 to 294 °C

Next:
Please fill in: melting point reported for CC(=O)N1N=C2c3ccccc3CCC2C1c1ccc(Cl)cc1 (stereo unspecified) = 182 to 183 °C

Please fill in: melting point reported for NC(Cc1ccc(F)cc1F)C(=O)O (racemic) = 224 to 226 °C

Please fill in: melting point reported for `CC1(C)C(=O)OOC1=O` = 44 to 45 °C

Please fill in: melting point reported for CC(C(=O)NCCO)c1ccc(-c2ccccc2)c(F)c1 (stereo unspecified) = 94 to 96 °C

Please fill in: melting point reported for `CC(C)CCC[C@@H](C)[C@H]1CC[C@H]2[C@@H]3CC[C@H]4CC(=O)CC[C@]4(C)[C@H]3CC[C@]12C` = 128 to 133 °C

Please fill in: melting point reported for `OCc1cn2ccsc2n1` = 154 to 155 °C

Please fill in: melting point reported for `CCOC(=O)Nc1cccc([N+](=O)[O-])c1[N+](=O)[O-]` = 102 to 103 °C

Please fill in: melting point reported for `O=C(O)c1cc(Br)cc(Br)c1` = 224 to 226 °C

Please fill in: melting point reported for `O=C(NCCCCCCO)OCC1c2ccccc2-c2ccccc21` = 119 to 120 °C

Please fill in: melting point reported for `CC(=CNNc1nc(C)cc(C)n1)c1cccnc1` = 147 to 150 °C

Please fill in: melting point reported for `Cc1cc(Sc2nnc(N)s2)c2ccccc2n1` = 197 to 200 °C

Please fill in: melting point reported for `O=C(O)Cn1c(CN2CCOCC2)nc2ccccc21` = 214 to 218 °C

Please fill in: melting point reported for `CCCCOC(N)=O` = 51 to 56 °C

Please fill in: melting point reported for `O=C(O)c1csc(-c2ccc3c(c2)CCO3)n1` = 210 to 214 °C

Please fill in: melting point reported for `O=Cc1ccc(N2CCCC2)c([N+](=O)[O-])c1` = 103 to 105 °C

* * *

Readout type: melting point

Please fill in: melting point reported for `CC(=O)c1cc(-c2ccc(Cl)cc2)oc1C` = 114 to 115 °C

Please fill in: melting point reported for `CCOC(=O)c1c(SC)n[nH]c1N` = 142 to 143 °C

Please fill in: melting point reported for `C#C[C@@]1(O)CC[C@@H]2[C@@H]3CC[C@@H]4CC(=O)CC[C@]4(C)[C@H]3CC[C@@]21C` = 220 to 221 °C

Please fill in: melting point reported for `Cc1cc(C(=O)Nc2ccc(Cl)cc2)no1` = 155 to 157 °C

Next:
Please fill in: melting point reported for CC(C(=O)O)c1ccc(CBr)cc1 (stereo not given) = 123 to 128 °C

* * *

The compounds listed here are annotated with their melting point.

Would you please look over these solved cases?
Please fill in: melting point reported for CC12CCC(C(=C/O)/C1=N\NC(N)=O)C2(C)C (configuration not stated) = 205 to 206 °C

Please fill in: melting point reported for `Cc1nc(Cl)nc(N)c1N` = 249 to 252 °C

Please fill in: melting point reported for `Cc1cc(-c2ccc(NC=O)c(C)c2)ccc1NC=O` = 265 to 270 °C

Please fill in: melting point reported for `O=S(=O)(Cl)c1cc(C(F)(F)F)ccc1N1CCOCC1` = 81.5 to 84 °C

Next:
Please fill in: melting point reported for `Nc1cc(-c2ccc(Cl)cc2)n[nH]1` = 174 to 176 °C

Please fill in: melting point reported for `O=S(=O)(Cl)c1ccccc1Br` = 50 to 51 °C

Please fill in: melting point reported for `CCOC(=O)c1nc2ccccc2s1` = 70 °C

* * *

The compounds listed here are annotated with their melting point.

Please fill in: melting point reported for `N#CC1CN(C(c2ccccc2)c2ccccc2)C1` = 153 to 156 °C

Please fill in: melting point reported for `Cc1n[nH]c2c(=O)n(-c3ccccn3)c(C)nc12` = 222 to 224 °C

Next:
Please fill in: melting point reported for CCCCC(O)C(O)CO (centres undefined) = 92 to 97 °C

Please fill in: melting point reported for `CCCC(=O)c1cc2ccccc2oc1=O` = 93 to 94 °C

* * *

Readout type: melting point (°C)

Would you please look over these solved cases?
Please fill in: melting point reported for CCCCC(C#N)(Cn1cncn1)c1ccc(Cl)cc1 (stereo not given) = 70.9

Please fill in: melting point reported for `CC(C)C1CC(=O)CC(=O)C1` = 80

Please fill in: melting point reported for `CC(=S)Nc1ccccc1` = 77.5

(I) CCCCCCCCCCCCCCCC=O
(II) CCCOC(=O)C1=C(C)NC(=O)NC1c1ccccc1O (stereo not given)
(III) Cc1cnc(N)s1
(IV) Nc1cc(S(=O)(=O)O)ccc1Cl
Returns the items ordered by melting point, from maximum to minimum. A ranking is expressed here by listing the labels in the requested order.
IV, II, III, I
(IV: 300 °C, II: 189 °C, III: 97 °C, I: 35 °C)

(P) CC(NNC(=O)c1ccccc1)c1ccccc1 (stereo not given)
(Q) COc1ccccc1OC(C)=O
Lab note: record which item had the higher melting point, P or Q . Answer with the label corresponding to your selection.
P

(I) N#CC1=C(N)Oc2c(c(C(F)(F)F)nn2-c2ccccc2)C1c1ccccc1 (stereo not given)
(II) Cc1ccc2ccc3ccccc3c2c1
Problem: Given the entries I and II , determine which has the lower reported melting point. Answer with the label corresponding to your selection.
II

(I) Clc1cccc2cc3c(Cl)cccc3cc12
(II) CCC(C)(C)S
(III) CCCCCc1ccc(NC(=O)c2ccc(C)cc2)cc1
(IV) CC(C)(C)C1CCC(O)CC1 (stereo not given)
Write the entries in order, lowest recorded melting point first. A ranking is expressed here by listing the labels in the requested order.
II, IV, III, I

Ref: a melting point compilation (Tetko et al.)
